Cited source for all entries: patent US5342851A

System: platelets (gel-filtered platelet rich plasma)
Assay: Platelet Aggregation Inhibition Activity (agonist thrombin or ADP, light transmission)
Type: cell-based
Conditions: read-out: Aggregation (IC50, concentration at which the increase in light transmission equals 50%)
Property: IC50 (µM)
Give bare numbers, in µM.

Recorded IC50 (compound N=C(N)NCCCNC(=O)c1cnn(-c2nc(-c3cccc(C(F)(F)F)c3)cs2)c1C(F)(F)F [Example 128, Nitrate] ): 118

====

Tested on: platelets (gel-filtered platelet rich plasma)
Test: Platelet Aggregation Inhibition Activity (agonist thrombin or ADP, light transmission)
Assay type: cell-based
Conditions: Homo sapiens, @ 20 μM, thrombin or ADP agonist, read-out: Aggregation (percentage increase in light transmission)
Property: inhibition at 20 µM (%)
Numbers only, in %.

CCCNCCCNC(=O)c1ccc(-c2csc(-c3ccc(C(F)(F)F)cc3)n2)cc1    85
Cc1ccc(-c2nc(-c3ccc(C(=O)NCCCN4CCCC4=O)cc3)cs2)cc1    90
CCN(CC)CCNC(=O)c1ccc(-c2csc(-c3ccc(C(C)(C)C)cc3)n2)cc1    85

Documented inhibition at 20 µM of CCCCNCCCNC(=O)c1ccc(-c2csc(-c3ccc(C(F)(F)F)cc3)n2)cc1 : 90
